system: T-47D breast; assay: NCI-60 one-dose screen, 48 h (100 = growth as untreated, 0 = no growth, -100 = all killed); details: 10 µM
Compounds without any hit were thinned out: in the full panel of roughly 83,000, 20% have a hit. The source made the active and inactive calls. How the source made its calls: active means growth percent below 10; inactive means the rest.
Measure: growth

Answered examples (6):
O=C1/C(=C\c2cn(C(=O)c3ccc(Cl)cc3)c3ccccc23)c2ccccc2N1C(=O)c1ccc(Cl)cc1
61.7% (inactive)
NC(=O)c1ccc(-c2cccc3c(=O)nc(N4CCOCC4)oc23)cc1
87.8% (inactive)
Clc1cccc(-c2nc(-c3cccs3)no2)c1
66.7% (inactive)
COc1ccc(OC)c2c1C(=O)CC2C (stereo unspecified)
98.8% (inactive)
O=C(O)CN1C(=O)c2cccc3cccc(c23)C1=O
90.1% (inactive)
O=C(c1cccs1)c1ccccc1Cc1ccccc1
95% (inactive)

Continue with the compound presented below.
Query: Dear colleague, I am looking for the recorded growth of the following compound: CCOCCOCCOCCOCCOCCOCCOCCOCCOCCO (tested in a mixture with another compound)
Reply: 16.6% (inactive)

---

tested on: T-47D breast; test: NCI-60 one-dose screen, 48 h (100 = growth as untreated, 0 = no growth, -100 = all killed); details: 10 µM
About 83,000 compounds went through this panel and 20% of them were active in at least one assay; those are over-represented in the sample as a whole.
Record 1 whenever growth is at 80% or higher; record -1 when lower.

For orientation, consider the following solved cases.
O=S(=O)(NCCNc1nccc(-c2c(-c3ccc(F)cc3)nc3sccn23)n1)c1ccc2ccccc2c1
-1
O=C1Nc2ccc(Cl)cc2/C1=C\c1c(-c2ccc(Cl)cc2)nc2sc(C3CC3)nn12
-1
Cc1[nH]nc2c1C(c1cnn(C)c1)C(C#N)=C(N)O2 (configuration not stated)
1

Query: Kindly determine if growth recorded for CC(C)C[C@H](NC(=O)[C@H](Cc1cccc2ccccc12)NS(=O)(=O)c1cccc2cccnc12)B(O)O is above or exactly 80%.
Reply: -1

Query: Has Clc1ccc(/C=C2\CCCC3=C2N=C2SC=NN2C3c2ccc(Cl)cc2)cc1 (configuration not stated) a recorded growth greater than or equal to 80%?
Reply: 1

Query: Could you verify whether the entry O=C1/C(=C/c2ccc([N+](=O)[O-])o2)Oc2ccccc21 shows growth of no less than 80%?
Reply: -1

Query: Dear colleague, could you confirm whether C/C(N)=C(\C#N)C(=O)c1ccccc1 has growth at or above 80%?
Reply: 1

---

test system: SF-539 CNS; experiment: NCI-60 one-dose screen, 48 h (100 = growth as untreated, 0 = no growth, -100 = all killed); conditions: 10 µM
Compounds without any hit were thinned out: in the full panel of roughly 83,000, 20% have a hit.
Measured growth, listed per entry for reference.
Report the figure in % without appending any unit label.

CN1c2ccccc2[C@]2(Cc3ccccc3)Cc3ccccc3N[C@H]12
105
COc1cc(C(=O)N2CCN(c3ccccc3OC)CC2)c(N)cc1OCCCN1CCN(c2ccccc2OC)CC1
89.9
CS(=O)(=O)Nc1cccc(-c2cc(-c3ccccc3Cl)c(C#N)c(N)n2)c1
-14.4
COc1cc2nc(Nc3cccc(NC(C)=O)c3)nc(N)c2cc1OC
101
COc1cc(Nc2ncnc(Nc3ccc4c(n3)NC(=O)C(C)(C)O4)n2)cc(OC)c1OC
-59.3
COc1cc(CNc2ccccc2C(=O)N2CCN(C(=O)c3cc(-c4cc(OC)c(OC)c(OC)c4)n4nc(-c5ccccc5)cc4n3)CC2)cc(OC)c1OC
49.4
CC(=O)/C(=C/c1ccccc1)C(=O)CC(C)C
109
O=C(CCCCC(=O)Nc1ccc2c(c1)/C(=C/c1ccc[nH]1)C(=O)N2)NO
81.1

Query: Which growth reading was recorded for the compound CN(C)CCNC(=O)c1cccn2c(=O)c3cc4ccccc4cc3nc12 ?
Reply: 1.59

Query: Give its growth value. Item: O=C(Nc1cccc(-n2cc(-c3ccncc3)c(-c3ccc(O)c(Cl)c3)n2)c1)c1cc(C(F)(F)F)cc(C(F)(F)F)c1
Reply: 56.1

Query: Entry O=C1OCC2=C1C(c1ccc(Cl)c(Cl)c1)c1cc3c(cc1N2CCO)OCCO3 (stereo not given) : reported growth = ?
Reply: 2.76

Query: Tell me the measured growth of O=C1OCC2=C1C(c1cccc(Cl)c1)c1cc3c(cc1N2CCO)OCCO3 (stereo not given) , please.
Reply: -3.57

Query: Could you share which growth value was measured for O=C(Nc1cccc(-n2cc(-c3ccncc3)c(-c3cc(O)cc(Cl)c3)n2)c1)Nc1ccc(Cl)c(C(F)(F)F)c1 ?
Reply: 32.6

Query: I am curious: what growth value has been reported for CCCCCCCC(C)NCCO (stereo not given) ?
Reply: 105

Where do the numbers come from? From PubChem BioAssay (NCI).
